Hi there, I'd appreciate the recorded Weight gain from 0 to 60% RH for every entry that follows.
measurement_protocol: Hygroscopicity by dynamic vapor sorption (DVS)
Assay type: physicochemical
test_conditions: DVS, 25° C., 0 to 60% RH
Kindly provide the numeric value in % only, without the unit symbol.

Prompt: Requested field: Weight gain from 0 to 60% RH. Item: O=C(O)CCCc1cc2cc(Cl)ccc2n1S(=O)(=O)c1ccc2ncsc2c1 [Form CSII]
Completion: 0.21

Prompt: Check O=C(O)CCCc1cc2cc(Cl)ccc2n1S(=O)(=O)c1ccc2ncsc2c1 [amorphous, reference compound] too.
Completion: 0.94

Prompt: Check O=C(O)CCCc1cc2cc(Cl)ccc2n1S(=O)(=O)c1ccc2ncsc2c1 [Form CSI] too.
Completion: 0.17

Prompt: Check O=C(O)CCCc1cc2cc(Cl)ccc2n1S(=O)(=O)c1ccc2ncsc2c1 [Form CSIV] too.
Completion: 0.23

###

measurement_protocol: Hygroscopicity by dynamic vapor sorption (DVS)
Type: physicochemical
test_conditions: DVS, 25° C., 0 to 70% RH
outcome_measure: Weight gain from 0 to 70% RH (%)
Kindly provide the numeric value in % only, without the unit symbol.

Prompt: Requested field: Weight gain from 0 to 70% RH. Item: O=C(O)CCCc1cc2cc(Cl)ccc2n1S(=O)(=O)c1ccc2ncsc2c1 [amorphous, reference compound]
Completion: 1.18

Prompt: Check O=C(O)CCCc1cc2cc(Cl)ccc2n1S(=O)(=O)c1ccc2ncsc2c1 [Form CSII] too.
Completion: 0.27

Prompt: Check O=C(O)CCCc1cc2cc(Cl)ccc2n1S(=O)(=O)c1ccc2ncsc2c1 [Form CSI] too.
Completion: 0.17

Prompt: Check O=C(O)CCCc1cc2cc(Cl)ccc2n1S(=O)(=O)c1ccc2ncsc2c1 [Form CSIV] too.
Completion: 0.27

Source listed as patent US12686678B2.
